Hello, the source for this data is patent US11091476B2, in case you need it.

Reported MRT is given for each of the following compounds.
Assay: Rat pharmacokinetic determination (LC/MS/MS of plasma)
Type: in vivo, SD rats
Conditions: male, rat, plasma; rats, single intravenous administration, 2 mg/kg, Mean ± SD; read-out: Retention time MRT
Give your result in h as a bare value.

CC1=Nc2c(F)cc(-c3nc(Nc4ccc(C5CCN(C)CC5)cn4)ncc3F)cc2C12CCCC2; 7.78

Q. For the compound CCN1CCN(Cc2ccc(Nc3ncc(F)c(-c4cc(F)c5nc(C)n(C(C)C)c5c4)n3)nc2)CC1 [LY2835219, reference compound] , give its reported MRT.
A. 3.82

----------
Reported IC50 is given for each of the following molecules.
Target: CDK4/CyclinE1 (Homo sapiens, UniProt P11802)
Settings: read-out: CDK4/CyclinE1 IC50
Give your result in nM as a bare value.

Example cases with answers are listed next.
CCN1CCC(c2ccc(Nc3ncc(F)c(-c4cc(F)c5c(c4)C4(CCCC4)C(C)=N5)n3)nc2)CC1; 4.46
CC1=Nc2c(F)cc(-c3nc(Nc4ccc(C5CCN(C)CC5)cn4)ncc3F)cc2C12CCCC2; 2.62

// below: IC50 requested for another molecule
Q. For the molecule CC1=Nc2c(F)cc(-c3nc(Nc4ccc(N5CCNCC5)cn4)ncc3F)cc2C12CCCC2 , give its reported IC50.
A. 80.9

----------
Biological target: CDK6/CyclinD3 (Homo sapiens (Human), UniProt Q00534)
Experiment: CDK kinase inhibitory activity, ADP-Glo Kinase Assay, CDK6/CyclinD3
pIC50: −log10 of the molar value.
Tick Met if pIC50 is 8 or greater. Tick Not met if pIC50 is less than 8.

Would you please look over these solved cases?
CCN1CCC(c2ccc(Nc3ncc(F)c(-c4cc(F)c5c(c4)C4(CCCC4)C(C)=N5)n3)nc2)CC1; Met
CC1=Nc2ccc(-c3nc(Nc4ccc(C5CCN(C)CC5)cn4)ncc3F)cc2C12CCCC2; Met
CCN1CCN(Cc2ccc(Nc3nccc(-c4cc(F)c5c(c4)C4(CCCC4)C(C)=N5)n3)nc2)CC1; Not met
CC1=Nc2ccc(-c3nc(Nc4ccc(C5CCN(C)CC5)cn4)ncc3F)cc2C1(C)C; Not met
CCN1CCN(Cc2ccc(Nc3ncc(F)c(-c4cc(F)c5c(c4)C4(CCC4)C(C)=N5)n3)nc2)CC1; Not met

Now consider the entry below.
Q. State whether the measured pIC50 reaches 8, counting equality as reaching it, for CC1=Nc2c(F)cc(-c3nc(Nc4ccc(N5CCNCC5)cn4)ncc3F)cc2C1(C)C
A. Not met

----------
Assay: Rat pharmacokinetic determination (LC/MS/MS of plasma)
Format: in vivo, SD rats
Settings: male, rat, plasma; rats, single intravenous administration, 2 mg/kg, Mean ± SD; read-out: Area under curve AUC0-∞
assay.endpoint: AUC(0-inf)
Give the number first and the unit second.

Q. For the compound CC1=Nc2c(F)cc(-c3nc(Nc4ccc(C5CCN(C)CC5)cn4)ncc3F)cc2C12CCCC2 [Example 17] , give its reported AUC(0-inf).
A. 1220 ng·h/mL

----------
Reported Pim-1/CDK6 is given for each of the following compounds.
Molecular target: CDK6/CyclinD3 (Homo sapiens (Human))
Experiment: CDK kinase inhibitory activity, ADP-Glo Kinase Assay, CDK6/CyclinD3
Type: biochemical
Conditions: ratio of IC50s, selectivity for CDK6 over Pim-1
Give a plain numeric answer without units written out.

Example cases with answers are listed next.
CC1=Nc2ccc(-c3nc(Nc4ccc(N5CCNCC5)cn4)ncc3F)cc2C12CCCC2; 7.03
CCC1(C)C(C)=Nc2c(F)cc(-c3nc(Nc4ccc(N5CCNCC5)cn4)ncc3F)cc21 (stereo not shown); 141.53
CC1=Nc2c(F)cc(-c3nc(Nc4ccc(C5CCNCC5)cn4)ncc3F)cc2C12CCCC2; 5.69

Q. For the compound CC1=Nc2c(F)cc(-c3nc(Nc4ccc(N5CCNCC5)cn4)ncc3F)cc2C1(C)C , give its reported Pim-1/CDK6.
A. 5.12

----------
Assay: Pharmacokinetic determination in mouse (LC/MS/MS of plasma)
Format: in vivo, ICR mice
Conditions: male, ICR, mouse, plasma; mice, single intravenous administration, 2 mg/kg, Mean ± SD; read-out: Retention time MRT
assay.endpoint: MRT (h)
Give your result in h as a bare value.

Q. For the compound CC1=Nc2c(F)cc(-c3nc(Nc4ccc(C5CCN(C)CC5)cn4)ncc3F)cc2C12CCCC2 [Example 17] , give its reported MRT.
A. 7.51

----------
Target: CDK6/CyclinD3 (Homo sapiens (Human))
Test: CDK kinase inhibitory activity, ADP-Glo Kinase Assay, CDK6/CyclinD3
Format: biochemical
Settings: ratio of IC50s, selectivity for CDK6 over CDK1
Tick condition met if CDK1/CDK6 is 30 or greater. Tick condition not met if CDK1/CDK6 is less than 30.

Would you please look over these solved cases?
CC1=Nc2c(F)cc(-c3nc(Nc4ccc5c(n4)CCN(C(=O)CO)C5)ncc3F)cc2C12CCCC2; condition not met
CCC1(CC)C(C)=Nc2c(F)cc(-c3nc(Nc4ccc(N5CCNCC5)cn4)ncc3F)cc21; condition not met
CC1=Nc2c(F)cc(-c3nc(Nc4ccc(N5CCNCC5)cn4)ncc3F)cc2C1(C)C; condition met

Q. State whether the measured CDK1/CDK6 reaches 30, counting equality as reaching it, for CCC1(C)C(C)=Nc2c(F)cc(-c3nc(Nc4ccc(N5CCN(C)CC5)cn4)ncc3F)cc21 (centres unmarked)
A. condition met

Q. State whether the measured CDK1/CDK6 reaches 30, counting equality as reaching it, for CCC1(C)C(C)=Nc2ccc(-c3nc(Nc4ccc(C5CCN(C)CC5)cn4)ncc3F)cc21 (centres unmarked)
A. condition not met

Q. State whether the measured CDK1/CDK6 reaches 30, counting equality as reaching it, for CCN1CCN(c2ccc(Nc3ncc(F)c(-c4ccc5c(c4)C4(CCCC4)C(C)=N5)n3)nc2)CC1
A. condition not met

Q. State whether the measured CDK1/CDK6 reaches 30, counting equality as reaching it, for CCC1(C)C(C)=Nc2c(F)cc(-c3nc(Nc4ccc(N5CCNCC5)cn4)ncc3F)cc21 (centres unmarked)
A. condition not met

Q. State whether the measured CDK1/CDK6 reaches 30, counting equality as reaching it, for CCC1(CC)C(C)=Nc2c(F)cc(-c3nc(Nc4ccc(N5CCN(C)CC5)cn4)ncc3F)cc21
A. condition not met

----------
Assay: Plasma and brain exposure levels after single intragastric administration
Format: in vivo, CD-1 mice
Details: male, mouse, po; CD-1 mice, intragastric 10 mg/kg, plasma; read-out: The time for blood concentration reaching peak Tmax, Plasma
Method: The CD-1 mice were used as the test animals, the concentrations of the drugs in the plasma and brain tissue of mice at different time points after single intragastric administration of the representative compound of this disclosure were determined by LC/MS/MS, so as to study the plasma level and brain exposure level of the compounds of the disclosure in mice. […] The linear range of sample analysis was 1-2000 ng/ml, and the lowest quantification limit was 1 ng/ml.
Reported Tmax is given for each of the following compounds.
Give your result in h as a bare value.

CCN1CCN(Cc2ccc(Nc3ncc(F)c(-c4cc(F)c5nc(C)n(C(C)C)c5c4)n3)nc2)CC1 [LY2835219, reference compound]; 1.5

// below: Tmax requested for another compound
Q. For the compound CC1=Nc2c(F)cc(-c3nc(Nc4ccc(C5CCN(C)CC5)cn4)ncc3F)cc2C12CCCC2 , give its reported Tmax.
A. 4

----------
Reported log10(IC50) is given for each of the following compounds.
Molecular target: CDK1/CyclinA2 (Homo sapiens (Human), UniProt P06493)
Assay: CDK kinase inhibitory activity, ADP-Glo Kinase Assay, CDK1/CyclinA2
Assay type: biochemical
Short version: log10 scale, IC50, nM.

Example cases with answers are listed next.
CC1=Nc2c(F)cc(-c3nc(Nc4ccc(CN5CCN(C)CC5)cn4)ncc3F)cc2C12CCCC2; 2.43
CC1=Nc2c(F)cc(-c3nc(Nc4ccc(N5CCNCC5)cn4)ncc3F)cc2C12CCCC2; 2.18
CC1=Nc2ccc(-c3nc(Nc4ccc(C5CCN(C)CC5)cn4)ncc3F)cc2C12CCCC2; 1.70
CC1=Nc2ccc(-c3nc(Nc4ccc(C5CCN(C)CC5)cn4)ncc3F)cc2C1(C)C; 1.87
CC1=Nc2ccc(-c3nc(Nc4ccc(N5CCN(C)CC5)cn4)ncc3F)cc2C12CCCC2; 2.62
CC1=Nc2c(F)cc(-c3nc(Nc4ccc(C5CCN(CCO)CC5)cn4)ncc3F)cc2C12CCCC2; 2.25
CCC1(C)C(C)=Nc2c(F)cc(-c3nc(Nc4ccc(C5CCN(C)CC5)cn4)ncc3F)cc21 (stereo not shown); 1.88
CCN1CCC(c2ccc(Nc3ncc(F)c(-c4ccc5c(c4)C4(CCCC4)C(C)=N5)n3)nc2)CC1; 2.13

Q. For the compound CCN1CCC(c2ccc(Nc3ncc(F)c(-c4cc(F)c5c(c4)C4(CCCC4)C(C)=N5)n3)nc2)CC1 , give its reported log10(IC50).
A. 3.03

Q. For the compound CCN1CCN(Cc2ccc(Nc3ncc(F)c(-c4ccc5c(c4)C4(CCCC4)C(C)=N5)n3)nc2)CC1 , give its reported log10(IC50).
A. 2.43

Q. For the compound CCC1(CC)C(C)=Nc2c(F)cc(-c3nc(Nc4ccc(C5CCN(C)CC5)cn4)ncc3F)cc21 , give its reported log10(IC50).
A. 1.30

Q. For the compound CCN1CCN(c2ccc(Nc3ncc(F)c(-c4ccc5c(c4)C4(CCCC4)C(C)=N5)n3)nc2)CC1 , give its reported log10(IC50).
A. 2.96

Q. For the compound CC1=Nc2c(F)cc(-c3nc(Nc4ccc5c(n4)CCN(C(=O)CO)C5)ncc3F)cc2C12CCCC2 , give its reported log10(IC50).
A. 2.21

Q. For the compound CC1=Nc2c(F)cc(-c3nc(Nc4ccc(C5CCNCC5)cn4)ncc3F)cc2C12CCCC2 , give its reported log10(IC50).
A. 2.51

Q. For the compound CC1=Nc2ccc(-c3nc(Nc4ccc(C5CCNCC5)cn4)ncc3F)cc2C12CCCC2 , give its reported log10(IC50).
A. 1.43

Q. For the compound CCC1(CC)C(C)=Nc2c(F)cc(-c3nc(Nc4ccc(N5CCNCC5)cn4)ncc3F)cc21 , give its reported log10(IC50).
A. 1.92
